# Tested on: mPer2Luc MEF
# assay.name: PER2::LUC luminescence relative to vehicle control (fold of vehicle); higher = higher PER2::LUC reporter signal
# cond: time after treatment 30 h; 10 µM
Whole data set: some 5,300 compounds, median “PER2::LUC luminescence relative to vehicle control” near 0.96, cut for the highest 2% near 1.3. What follows is part of a selection rich in the highest values, with near analogues and random picks from the rest.
Would you mind labelling by PER2::LUC luminescence? At or over 1 is TRUE, under is FALSE.

# compound, class
data = [
    ("COc1ccc(SC(=O)N[C@@H](CCC(=O)O)C(=O)O)cc1", "FALSE"),
    ("c1nc(CC2CCNCC2)c[nH]1", "FALSE"),
    ("C[C@@H]1C[C@H]2[C@@H]3C[C@H](F)C4=CC(=O)C(Cl)=C[C@]4(C)[C@@]3(F)[C@@H](O)C[C@]2(C)[C@@]1(O)C(=O)CO", "FALSE"),
    ("O=c1cc(-c2ccccc2)oc2cccc(O)c12", "TRUE"),
    ("C=CC(=O)c1ccc(CCCCCC)cc1", "FALSE"),
    ("c1cc(NC2CCNCC2)nc(-c2cnc3ccccn23)c1", "FALSE"),
    ("CCOC(=O)c1cn(-c2c(F)c(F)c(C#N)c(F)c2F)c2c(F)c(F)c(F)cc2c1=O", "TRUE"),
    ("O=C(O)[C@H]1O[C@@H](Oc2cc3oc(-c4ccccc4)cc(=O)c3c(O)c2O)[C@H](O)[C@@H](O)[C@@H]1O", "TRUE"),
    ("COc1cc(N2CCOCC2)ccc1Nc1ncc(F)c(Nc2ccccc2NS(C)(=O)=O)n1", "FALSE"),
    ("O=c1cc(-c2ccc(O)c(O)c2)oc2cc(O)cc(O)c12", "TRUE"),
    ("CCO[C@H]1CN(C2CCC(O)(c3ccc4c(c3)OCO4)CC2)C[C@@H]1NC(=O)CNC(=O)c1cccc(C(F)(F)F)c1 (some centres not stated)", "FALSE"),
    ("C=C1/C(=C\\C=C2/CCC[C@]3(C)[C@@H]([C@H](C)CC[C@@H](O)C(C)(C)O)CC[C@@H]23)C[C@@H](O)C[C@@H]1O", "FALSE"),
    ("C[Si](C)(C)CCOCn1ccc2c(-c3cn[nH]c3)ncnc21", "TRUE"),
    ("CNc1ncnc2c1ncn2[C@H]1C[C@H](O)[C@@H](CO)O1", "FALSE"),
    ("CC(C)(C)[Si](C)(C)Oc1ccc2oc(=O)c3c(c2c1)CCCN3", "TRUE"),
    ("CCCN(CCC)S(=O)(=O)c1ccc(C(=O)O)cc1", "FALSE"),
    ("COc1ccc(CNc2nc(NCc3ccc(OC)cc3)c3ncn(C(C)C)c3n2)cc1", "TRUE"),
    ("O=c1cc(-c2ccccc2)oc2cc(O)c(O)c(O)c12", "TRUE"),
    ("O=C(O)c1ccc(S(=O)(=O)N(Cl)Cl)cc1", "TRUE"),
    ("CCC(C(=S)O[C@]12CCC[C@H](CC1)N2C)c1ccccc1 (some centres not stated)", "FALSE"),
    ("CC(C)[C@H](NC(=O)CCCCCN1C(=O)C=CC1=O)C(=O)N[C@@H](CCCNC(N)=O)C(=O)Nc1ccc(COC(=O)Oc2ccc([N+](=O)[O-])cc2)cc1", "TRUE"),
    ("CCN(CC)CCOc1ccc(Cc2ccccc2)cc1", "FALSE"),
    ("O=C(CS(=O)(=O)Cc1ccccc1)N1CCOCC1", "FALSE"),
    ("CCOCCOc1ccccc1C(N)=O", "TRUE"),
    ("O=Cc1c2[nH]c3ccccc3c2cc2[nH]c3ccccc3c12", "TRUE"),
    ("Cn1c2ncnc-2c(O)n(C)c1=O", "TRUE"),
    ("CCc1c(C(=O)NNC(=O)[C@@H](O)c2cc(F)cc(F)c2)ccc(O)c1C", "TRUE"),
    ("CO[C@H]1C[C@H](O[C@@H]2/C(C)=C/C[C@@H]3C[C@@H](C[C@]4(CC[C@H](C)[C@H](C5CCCCC5)O4)O3)OC(=O)[C@H]3C=C(C)/C(=N\\O)[C@H]4OCC(=C/C=C/[C@@H]2C)[C@@]34O)O[C@@H](C)[C@@H]1O", "FALSE"),
]
